- experiment.summary: Fecal excretion study in rats after oral NS, SF or CNS (LC–MS/MS)
- Format: in vivo
- condition: male, Sprague Dawley; rat feces, oral NS 60 mg/kg, 96 h
attribute.measured: concentration at 96 h (ng/mL)
# value in ng/mL; strip the unit string

Quick one: concentration at 96 h for CC(C)=CCC[C@](C)(O[C@@H]1O[C@H](CO)[C@@H](O)[C@H](O)[C@H]1O)[C@H]1CC[C@]2(C)[C@@H]1[C@H](O)C[C@@H]1[C@@]3(C)CC[C@H](O)C(C)(C)[C@@H]3[C@@H](O[C@@H]3O[C@H](CO)[C@@H](O)[C@H](O)[C@H]3O)C[C@]12C [ginsenoside Rg1] ?
23

====

Excretion amount values, listed per item
- experiment.summary: Fecal excretion study in rats after oral NS, SF or CNS (LC–MS/MS)
- Type: in vivo
- condition: rat feces, oral NS 60 mg/kg, 12 h
Output spec: scalar in µg, unitless text.

molecule | Excretion amount, µg
CC(C)=CCC[C@](C)(O[C@@H]1O[C@H](CO)[C@@H](O)[C@H](O)[C@H]1O)[C@H]1CC[C@]2(C)[C@@H]1[C@H](O)C[C@@H]1[C@@]3(C)CC[C@H](O)C(C)(C)[C@@H]3[C@@H](O[C@@H]3O[C@H](CO)[C@@H](O)[C@H](O)[C@H]3O)C[C@]12C [ginsenoside Rg1] | 15.587
CC(C)=CCC[C@](C)(O[C@@H]1O[C@H](CO)[C@@H](O)[C@H](O)[C@H]1O)[C@H]1CC[C@]2(C)[C@@H]1[C@H](O)C[C@@H]1[C@@]3(C)CC[C@H](O)C(C)(C)[C@@H]3[C@@H](O[C@@H]3O[C@H](CO)[C@@H](O)[C@H](O)[C@H]3O[C@@H]3O[C@@H](C)[C@H](O)[C@@H](O)[C@H]3O)C[C@]12C [ginsenoside Re] | 5.759

Now examine the next entry.
Fill in the blank: the reported Excretion amount of CC(C)=CCC[C@](C)(O[C@@H]1O[C@H](CO)[C@@H](O)[C@H](O)[C@H]1O)[C@H]1CC[C@]2(C)[C@@H]1[C@H](O)C[C@@H]1[C@@]3(C)CC[C@H](O[C@@H]4O[C@H](CO)[C@@H](O)[C@H](O)[C@H]4O[C@@H]4O[C@H](CO)[C@@H](O)[C@H](O)[C@H]4O)C(C)(C)[C@@H]3CC[C@]12C [ginsenoside Rd] is ____.
8.676

====

Entries annotated with measured Excretion amount
- experiment.summary: Urinary excretion study in rats after oral NS, SF or CNS (LC–MS/MS)
- Type: in vivo
- condition: rat urine, oral NS 60 mg/kg, 120 h
Express your answer in µg, writing the number without its unit.

Some solved cases for reference:
compound | endpoint.unit | Excretion amount
CC(C)=CCC[C@](C)(O[C@@H]1O[C@H](CO)[C@@H](O)[C@H](O)[C@H]1O)[C@H]1CC[C@]2(C)[C@@H]1[C@H](O)C[C@@H]1[C@@]3(C)CC[C@H](O)C(C)(C)[C@@H]3[C@@H](O[C@@H]3O[C@H](CO)[C@@H](O)[C@H](O)[C@H]3O)C[C@]12C [ginsenoside Rg1] | µg | 0.062
CC(C)=CCC[C@](C)(O[C@@H]1O[C@H](CO)[C@@H](O)[C@H](O)[C@H]1O)[C@H]1CC[C@]2(C)[C@@H]1[C@H](O)C[C@@H]1[C@@]3(C)CC[C@H](O)C(C)(C)[C@@H]3[C@@H](O[C@@H]3O[C@H](CO)[C@@H](O)[C@H](O)[C@H]3O[C@@H]3O[C@@H](C)[C@H](O)[C@@H](O)[C@H]3O)C[C@]12C [ginsenoside Re] | µg | 0.004
CC(C)=CCC[C@](C)(O[C@@H]1O[C@H](CO[C@@H]2O[C@H](CO)[C@@H](O)[C@H](O)[C@H]2O)[C@@H](O)[C@H](O)[C@H]1O)[C@H]1CC[C@]2(C)[C@@H]1[C@H](O)C[C@@H]1[C@@]3(C)CC[C@H](O[C@@H]4O[C@H](CO)[C@@H](O)[C@H](O)[C@H]4O[C@@H]4O[C@H](CO)[C@@H](O)[C@H](O)[C@H]4O)C(C)(C)[C@@H]3CC[C@]12C [ginsenoside Rb1] | µg | 0.006

# ---- query compound ----
Quick one: Excretion amount of CC(C)=CCC[C@](C)(O[C@@H]1O[C@H](CO)[C@@H](O)[C@H](O)[C@H]1O)[C@H]1CC[C@]2(C)[C@@H]1[C@H](O)C[C@@H]1[C@@]3(C)CC[C@H](O[C@@H]4O[C@H](CO)[C@@H](O)[C@H](O)[C@H]4O[C@@H]4O[C@H](CO)[C@@H](O)[C@H](O)[C@H]4O)C(C)(C)[C@@H]3CC[C@]12C [ginsenoside Rd] ?
0.007

Data credit: paper PMC6321168
